test system: Blood; test: Biodistribution in blood of B16F0 tumor bearing C57BL/6J mouse at 0.37-0.74 MBq, iv after 6 hrs; type: ADME, organism-based; settings: in vivo
MEASURED_ENDPOINT: Drug uptake (% ID/g)

These recorded examples may help you get a feel for the data.
CCCCNCCCCNC(=O)c1cc([123I])c(NC(C)=O)cc1OC; 0.47
CCN(CC)CCNC(=O)c1cc([123I])c(NS(C)(=O)=O)cc1OC; 0.49
CCCN(CCC)CCCCNC(=O)c1cc([123I])c(NC(C)=O)cc1OC; 1.1
CCCN(CCC)CCCCNC(=O)c1ccc([123I])cc1; 0.35

[A] CCN(CC)CCNC(=O)c1ccccc1[123I]
[B] O=C(NC1CCN(CCF)CC1)c1ccc(I)cc1
// max by Drug uptake over [ A , B ] Write down the label attached to your selection.
A
(A: 1.2 % ID/g, B: 0.34 % ID/g)

---

system: Blood; assay: Biodistribution in blood of B16F0 tumor bearing C57BL/6J mouse at 0.37-0.74 MBq, iv after 1 hr; type: ADME, organism-based; conditions: in vivo
MEASURED_ENDPOINT: Drug uptake (% ID/g)

These recorded examples may help you get a feel for the data.
CCCCNCCCCNC(=O)c1cc([123I])c(NC(C)=O)cc1OC; 0.84
CCN(CC)CCNC(=O)c1ccccc1[123I]; 1.9
COc1cc(NC(C)=O)c([123I])cc1C(=O)NCCCCN1CC2CCC1C2 (stereo not drawn); 1.92
CCN(CC)CCNC(=O)c1cc([123I])c(NC(C)=O)cc1OC; 0.98
O=C(NCCCCN1CC2CCC1C2)c1ccc([123I])cc1 (stereo not drawn); 0.48

[1] O=C(NC1CCN(CCF)CC1)c1ccc(I)cc1
[2] CCCN(CCC)CCCCNC(=O)c1ccc([123I])cc1
[3] CCCN(CCC)CCCCNC(=O)c1cc([123I])c(NC(C)=O)cc1OC
Reorder the items by Drug uptake, least to greatest. The response must list the labels following the requested ordering.
2, 1, 3

[1] CCCCN(C)CCCCNC(=O)c1cc([123I])c(NC(C)=O)cc1OC
[2] CCN(CC)CCNC(=O)c1cc([123I])c(NS(=O)(=O)c2ccc(C)cc2)cc1OC
Hey, between 1 and 2 which has a smaller measured Drug uptake? Write down the label attached to your selection.
2
(2: 0.74 % ID/g, 1: 1.2 % ID/g)

---

test system: Brain; test: Biodistribution in brain of B16F0 tumor bearing C57BL/6J mouse at 0.37-0.74 MBq, iv after 24 hrs; assay type: ADME, organism-based; conditions: in vivo
MEASURED_ENDPOINT: Drug uptake (% ID/g)

[I] O=C(NCCCCN1CC2CCC1C2)c1ccc([123I])cc1 (centres undefined)
[II] O=C(NC1CCN(CCO)CC1)c1ccc([123I])cc1
Hey, between I and II which has a smaller measured Drug uptake? Write down the label attached to your selection.
I
(I: 0.01 % ID/g, II: 0.15 % ID/g)

---

system: Brain; assay: Biodistribution in brain of B16F0 tumor bearing C57BL/6J mouse at 0.37-0.74 MBq, iv after 1 hr; format: ADME, organism-based; settings: in vivo
MEASURED_ENDPOINT: Drug uptake (% ID/g)

These recorded examples may help you get a feel for the data.
CCCCNCCCCNC(=O)c1cc([123I])c(NC(C)=O)cc1OC; 0.04
O=C(NC1CCN(CCF)CC1)c1ccc(I)cc1; 3.1
CCN(CC)CCNC(=O)c1cc([123I])c(NS(C)(=O)=O)cc1OC; 0.05

[a] O=C(NC1CCN(CCO)CC1)c1ccc([123I])cc1
[b] CCCN(CCC)CCCCNC(=O)c1cc([123I])c(NC(C)=O)cc1OC
// max by Drug uptake over [ a , b ] Write down the label attached to your selection.
a
